tested_system: T1, 4H317-AA
T1 chain: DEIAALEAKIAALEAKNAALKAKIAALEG
run_description: two-hybrid library CCmax;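 also: natural log of median RNA to DNA barcode read ratio; higher means stronger binding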
run_parameters: mean of both orientations
quantity_kind: interaction score

| binder | quantity_kind | assay_value |
| --- | --- | --- |
| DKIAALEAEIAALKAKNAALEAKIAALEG [4H2165-AA] | interaction score | 0.575 |
| DKIAALEAKIAALEAKNAALEAEIAALKG [4H2354-AA] | interaction score | 0.391 |
| DENAALEAKIAALKAEIAALEAKNAALKG [4H1352-AA] | interaction score | -0.919 |
| DKIAALEAKIAALKAENAALKAEIAALEG [4H2393-AA] | interaction score | 1.92 |
| DKIAALKAKNAALEAEIAALEAKIAALEG [4H2949-AA] | interaction score | 1.47 |
| DKIAALKAKIAALEAENAALEAKIAALEG [4H2837-AA] | interaction score | 1.61 |
| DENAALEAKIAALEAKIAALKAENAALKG [4H1324-AA] | interaction score | -1.41 |
| DKIAALEAEIAALKAKIAALEAKNAALEG [4H2151-AA] | interaction score | -0.983 |

[a] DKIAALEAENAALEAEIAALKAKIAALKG [4H2190-AA]
[b] DKIAALKAEIAALEAEIAALKAKNAALEG [4H2575-AA]
[c] DENAALKAEIAALKAKIAALEAENAALKG [4H1636-AA]
[d] DENAALEAEIAALEAKNAALKAKIAALKG [4H1086-AA]
[e] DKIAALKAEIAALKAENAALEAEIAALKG [4H2642-AA]
Asked: Let's sort these by interaction score, smallest first. Go ahead? Hello, could you send the labels back in the order asked? Thank you.
Given back: c, d, b, e, a
